B1: LINE1-full (parent)
chain: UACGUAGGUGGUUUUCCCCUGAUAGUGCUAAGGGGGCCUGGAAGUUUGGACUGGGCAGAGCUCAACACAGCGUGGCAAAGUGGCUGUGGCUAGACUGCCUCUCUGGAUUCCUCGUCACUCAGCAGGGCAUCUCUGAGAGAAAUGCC

# Variants of: B1
# RUN DESCRIPTION: self-cleavage, relative activity (ratio to wild type); higher = more cleavage; in vitro, sequencing; the parent is a self-cleaving ribozyme
The entries below come with measured self-cleavage values attached.
The answer should be written as a number, with no unit following it.

- MUTATION LABEL: "G32U U45A"
  OBSERVABLE: "self-cleavage"
  READOUT NUMBER: 1.17
- MUTATION LABEL: "A69G U115A"
  OBSERVABLE: "self-cleavage"
  READOUT NUMBER: 0.25
- MUTATION LABEL: "C71U U81A"
  OBSERVABLE: "self-cleavage"
  READOUT NUMBER: 0.88

Then there is this variant:
I am curious: what self-cleavage value has been reported for `C123A` ?
1.19
